molecular target: human CD33 T185A (human, UniProt P20138 18-364); test: alanine scan, flow cytometry, HEK293-T;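 also: antibody binding to each alanine-substituted CD33 mutant expressed transiently in HEK293-T, read as fluorescence minus background, mean of duplicates, relative to wild-type CD33 set as 100%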
Sequence (P20138 18-364 T185A limits assumed): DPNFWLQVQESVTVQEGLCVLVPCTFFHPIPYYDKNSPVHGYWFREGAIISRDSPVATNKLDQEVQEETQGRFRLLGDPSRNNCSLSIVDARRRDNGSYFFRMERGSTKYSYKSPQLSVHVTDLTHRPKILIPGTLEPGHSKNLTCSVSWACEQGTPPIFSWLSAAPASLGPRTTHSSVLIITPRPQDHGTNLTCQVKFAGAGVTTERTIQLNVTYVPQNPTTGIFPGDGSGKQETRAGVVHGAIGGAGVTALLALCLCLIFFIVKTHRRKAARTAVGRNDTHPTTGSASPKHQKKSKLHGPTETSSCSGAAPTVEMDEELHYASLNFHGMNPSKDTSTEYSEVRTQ
Entries and their Mean % WT Binding
Entry rule: numbers only, all in %.

// known answers, use as guide
INSERT INTO measurements (binder, assay_result) VALUES
  ('Refmab #1 (antibody, V domains shown, In the alanine scan antibodies were used as IgG or Fab; also called hP67.6) VH: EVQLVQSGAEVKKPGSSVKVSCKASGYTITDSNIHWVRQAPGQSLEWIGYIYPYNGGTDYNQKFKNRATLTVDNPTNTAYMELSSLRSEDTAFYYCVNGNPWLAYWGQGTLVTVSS VL: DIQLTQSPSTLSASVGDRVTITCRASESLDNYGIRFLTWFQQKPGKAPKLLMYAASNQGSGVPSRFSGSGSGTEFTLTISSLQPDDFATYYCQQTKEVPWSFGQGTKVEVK', 92.3),
  ('Refmab #3 (antibody, V domains shown, In the alanine scan antibodies were used as IgG or Fab) VH: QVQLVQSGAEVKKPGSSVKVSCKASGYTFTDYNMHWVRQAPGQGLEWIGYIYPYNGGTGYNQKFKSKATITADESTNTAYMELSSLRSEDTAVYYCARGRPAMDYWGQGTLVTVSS VL: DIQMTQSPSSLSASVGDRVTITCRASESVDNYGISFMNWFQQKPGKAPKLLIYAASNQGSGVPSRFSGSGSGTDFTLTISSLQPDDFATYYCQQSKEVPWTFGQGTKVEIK', 105),
  ('Refmab #2 (antibody, V domains shown, In the alanine scan antibodies were used as IgG or Fab) VH: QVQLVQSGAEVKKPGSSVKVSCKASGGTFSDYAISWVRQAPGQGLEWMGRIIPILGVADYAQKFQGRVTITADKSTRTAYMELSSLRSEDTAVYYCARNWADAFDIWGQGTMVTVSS VL: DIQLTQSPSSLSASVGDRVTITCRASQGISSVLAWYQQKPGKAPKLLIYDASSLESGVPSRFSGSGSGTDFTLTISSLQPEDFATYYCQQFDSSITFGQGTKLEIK', 118);

Q: Read off the recorded Mean % WT Binding for Refmab #4 (antibody, V domains shown, In the alanine scan antibodies were used as IgG or Fab) VH: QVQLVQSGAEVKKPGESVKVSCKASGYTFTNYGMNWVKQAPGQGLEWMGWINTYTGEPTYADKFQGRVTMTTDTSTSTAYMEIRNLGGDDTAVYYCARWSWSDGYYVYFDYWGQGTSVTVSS VL: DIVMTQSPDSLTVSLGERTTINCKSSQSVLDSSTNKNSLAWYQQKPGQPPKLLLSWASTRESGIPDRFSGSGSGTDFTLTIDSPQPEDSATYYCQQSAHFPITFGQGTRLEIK
Ans: 98.9
